The reported numbers originate from PubChem BioAssay (NCI).

# maps each entry to its TGI
System: OVCAR-5 ovarian
Experiment: NCI tumour cell line growth inhibition, 48 h

molecule	TGI
Cc1cc(S(=O)(=O)/N=C(/NN)NNc2cccc(C(F)(F)F)n2)c(S)cc1Cl	29.5 µM
O=C(NC(=O)c1ccccc1[N+](=O)[O-])Nc1ccc(Oc2ncc(Cl)cn2)c(C(F)(F)F)c1	80.4 µM
O=C(O)c1cc2ccccc2c2c1C(=O)c1ccccc1-2	> 100 µM
O=C(O)C(Oc1nc(=S)[nH]c(=S)[nH]1)(c1ccc(Cl)cc1)c1ccc(Cl)cc1	> 100 µM
CCN(Cc1c(Cl)cccc1Cl)c1ccc(CO)c(Cl)c1	0.24 µM
CC(C)(C)[Si](C)(C)OCC1OC(n2cnc3c(=O)[nH]c(N)nc32)C(O[Si](C)(C)C(C)(C)C)C1O[Si](C)(C)C(C)(C)C (stereo unspecified)	5.79 µM
O=S1Nc2c(Cl)cc(Cl)c(Cl)c2S1 (stereo unspecified)	> 100 µM
CN(C)C(=O)Oc1c(-c2ccccc2)c(=O)n2c3ccccc3n3c(=O)n(C)c(=O)c1c23	> 100 µM
CC(C)(C)OC(=O)NCC(=O)N1CCN(C(=O)CNC(=O)OC(C)(C)C)CC1	> 100 µM
CCN(CC)CC(=N)N(CC)c1ccccc1	> 100 µM
O=c1[nH]c(=S)c2cc3c(=S)[nH]c(=O)n(CCO)c3nc2n1CCO	> 100 µM
CN(C)/N=N/c1nc[nH]c1C(N)=O	> 1000 µM
NCCCNCCCCN1CC1	> 33.8 µM
C[C@@H](Nc1nc(Nc2ccc(F)c(Cl)c2)nc2ccccc12)C1CC1	16 µM
C=C(c1ccccc1)c1ccccc1-c1cc(-c2ccccc2)cc(-c2ccccc2)n1	> 100 µM
O=c1c2ccccc2nc(N/N=C/c2ccccc2O)n1-c1ccccc1	> 100 µM
Cn1c(=O)c2/c(n(C)c1=O)=N\C=c1\c(=O)n(C)c(=O)n(C)\c1=N\C=2	> 100 µM
C[N+](C)(CCNC(=O)c1cccc2cc3ccccc3nc12)Cc1ccc([N+](=O)[O-])s1	> 25 µM
Cc1coc2c1C(OC(=O)C(C)C)C1(C)C(C)CCC(O)C1C2=O (stereo unspecified)	> 100 µM
c1ccc(CN2CCN3CCN(CC2)CCN(Cc2ccccc2)CC3)cc1	28.6 µM
O=C1C(=Cc2ccc(Cl)c(Cl)c2)C([O-])=C([P+](c2ccccc2)(c2ccccc2)c2ccccc2)C([O-])=C1[P+](c1ccccc1)(c1ccccc1)c1ccccc1	12.6 µM

----------
Tested on: SK-MEL-28 melanoma
Test: NCI tumour cell line growth inhibition, 48 h

compound	TGI
CCCCCn1c(C)cc(/C=C\c2ccc3cc(C)ccc3[n+]2C)c1C	1.71 µM
CC(C)=CC(=O)Cc1nc2ccc([N+](=O)[O-])cc2[nH]c1=O	> 100 µM
Cc1ccc(N=C2C(=Nc3ccc(C)cc3)N(c3ccc(C)cc3)C(=S)N2C(=O)c2ccccc2)cc1	> 100 µM
CC(C)(C)OC(=O)NCC(=O)N1CCN(C(=O)CNC(=O)OC(C)(C)C)CC1	> 100 µM
CCOC(=O)[C@@H]1ON2OC(OC3CCCC3(c3ccccc3)c3ccccc3)C(OC(C)=O)[C@H]3OC(=O)[C@@H]1C32 (some centres not stated)	> 100 µM
Cc1cc(C(=O)c2ccccc2)c(C)c2c1[nH]c1ccc(Cl)cc12	72.3 µM
CCOC(=O)N1CCC(=C2c3ccc(Cl)cc3CCc3cccnc32)CC1	20.3 µM
C/C(=N\NC(=S)N(C)C)c1ccccn1	20.6 µM
O=C(O)/C(=C\c1ccncc1)c1cccc2ccccc12	> 100 µM
CCN(CC)CCNC(=O)c1cccc2nc3ccccc3nc12	34.3 µM
CSc1scc2c1/C(=N/NC(N)=O)CCC2	> 100 µM
OCCN1CCN(CC/C=C2/c3ccccc3Sc3ccc(Cl)cc32)CC1	3.38 µM
CC(=O)c1c2n(n(-c3ccccc3)c1=O)C(=O)c1nccnc1-2	> 100 µM
N#CCC(=O)N1CCCCCCC1	> 100 µM
CNCCN=c1ccc2c3c1c(O)c1c(O)ccc(=O)c1c3[nH]n2CCNCCO	6.87 µM
O=Nc1c(-c2c(O)[nH]c3ccc(Br)cc23)[nH]c2ccccc12	> 100 µM
COc1cc(CS(=O)c2ccc(O)cc2)cc(OC)c1OC (configuration not stated)	> 100 µM
C=C(C)CNC(=S)N(N)c1ccc2ccccc2c1	> 100 µM
Oc1ccc(N=Nc2ccccn2)c(O)c1	> 100 µM
Cc1cc(S(=O)(=O)/N=C(/NN)NNc2cccc(C(F)(F)F)n2)c(S)cc1Cl	33.5 µM
COc1ccc(Cn2cc3c(c2-c2cc(OC)c(OC)c(OC)c2)CCc2cnoc2-3)cc1	> 100 µM
Cc1c([N+](=O)[O-])oc2ccc3ccccc3c12	> 100 µM
C=C(c1ccccc1)c1ccccc1-c1cc(-c2ccccc2)cc(-c2ccccc2)n1	> 100 µM
O=C(NC(=S)Nc1cc(Cl)ccc1O)c1cccc(Br)c1	> 100 µM
Cn1cccc1/C=C/c1cc(Br)c(/C=C/c2cccn2C)cc1Br	31.5 µM
Cc1cn(S(=O)(=O)c2ccccc2)c2c(OCc3ccccc3)cc(NS(C)(=O)=O)cc12	> 100 µM
CC#Cc1nc(Nc2cc(C)[nH]n2)c2ccccc2n1	> 100 µM
